biological target: Grb2 SH2 (UniProt P62993); assay: SH2 binding enrichment of the phosphorylated peptide, bacterial display (enrichment ratio); higher = better substrate or ligand; peptides without Tyr show the background;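 also: peptide library displayed on the E. coli surface as eCPX fusions, selected cells deep-sequenced, score is each peptide's frequency after selection divided by its frequency in the input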
Sequence (P62993 whole entry, looked up, the tested form may be a part): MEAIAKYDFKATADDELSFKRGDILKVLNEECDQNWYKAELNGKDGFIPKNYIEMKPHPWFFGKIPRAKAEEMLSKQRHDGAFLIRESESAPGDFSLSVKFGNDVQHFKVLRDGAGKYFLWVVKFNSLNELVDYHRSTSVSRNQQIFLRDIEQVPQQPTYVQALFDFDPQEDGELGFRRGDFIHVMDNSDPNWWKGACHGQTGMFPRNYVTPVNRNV
TEST_READOUT: SH2 binding enrichment
Number only, no unit.

{"SEQUENCE_CHAIN": "ALHHPYGCDVE [ABL2_Y80_R78H]", "SH2 binding enrichment": 1.03}
{"SEQUENCE_CHAIN": "THEVRYISAGQ [SLCO4A1_Y77_V78I]", "SH2 binding enrichment": 0.726}
{"SEQUENCE_CHAIN": "RRRLIYRCQVG [NR2E3_Y81]", "SH2 binding enrichment": 0.727}
{"SEQUENCE_CHAIN": "LHRHAYPEQRQ [DPPA2_Y127]", "SH2 binding enrichment": 1.14}
{"SEQUENCE_CHAIN": "GAMGHYVLAER [HFE_Y342]", "SH2 binding enrichment": 1.18}
{"SEQUENCE_CHAIN": "KVKGEYDMTVP [AHNAK_Y964]", "SH2 binding enrichment": 0.756}

## Task For the sequence TTKAKYKTPTY [PLD2_Y573] , give its measured SH2 binding enrichment value.
## Result 0.906

## Task Give SH2 binding enrichment for the following sequence: LAAAGYDVKKN [H1-3_Y72_E75K]
## Result 0.66

## Task Complete the entry with SH2 binding enrichment for GKMSQYLESMQ [CYB5R3_Y130]
## Result 0.657

## Task Answer with the recorded SH2 binding enrichment for the sequence listed here: AAILGYCHGEA [XPC_Y669_R671H]
## Result 0.855

## Task Entry PFIDSYEKDVA [PGM1_Y521_L516P_YF] needs its SH2 binding enrichment filled in; supply it.
## Result 0.682
